- TARGET_OR_SYSTEM: Alpha-2C adrenergic receptor (Homo sapiens, UniProt P18825); further: assay procedure not described here
- Sequence (P18825 whole entry): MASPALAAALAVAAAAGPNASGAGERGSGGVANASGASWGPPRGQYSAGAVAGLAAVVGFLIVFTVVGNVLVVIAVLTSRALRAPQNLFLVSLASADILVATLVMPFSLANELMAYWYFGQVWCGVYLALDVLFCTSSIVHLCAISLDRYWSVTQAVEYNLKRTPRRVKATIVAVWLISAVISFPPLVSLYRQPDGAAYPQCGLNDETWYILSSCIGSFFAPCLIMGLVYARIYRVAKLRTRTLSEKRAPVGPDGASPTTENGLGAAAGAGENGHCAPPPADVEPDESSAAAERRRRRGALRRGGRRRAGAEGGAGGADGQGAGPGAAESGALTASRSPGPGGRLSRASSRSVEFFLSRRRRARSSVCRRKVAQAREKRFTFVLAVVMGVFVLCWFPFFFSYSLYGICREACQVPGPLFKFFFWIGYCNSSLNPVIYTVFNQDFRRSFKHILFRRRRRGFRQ
- Assay type: functional
PROPERTY: AC50

1) CCC(=O)O[C@]1(C(=O)CCl)[C@@H](C)C[C@H]2[C@@H]3CCC4=CC(=O)C=C[C@]4(C)[C@@]3(F)[C@@H](O)C[C@@]21C [CLOBETASOL PROPIONATE] | > 30 µM
2) CN1Cc2c(N)cccc2C(c2ccccc2)C1 (centres undefined) [NOMIFENSINE] | > 30 µM
3) C[C@@H]1C[C@H]2[C@@H]3C[C@H](F)C4=CC(=O)C=C[C@]4(C)[C@@]3(F)[C@@H](O)C[C@]2(C)[C@@]1(OC(=O)c1ccco1)C(=O)SCF [FLUTICASONE FUROATE] | > 10 µM
4) O=C1c2ccccc2C(=O)C1c1ccccc1 [PHENINDIONE] | > 10 µM
5) CC(C)NC(=N)NC(=N)Nc1ccc(Cl)c(Cl)c1 [CHLORPROGUANIL] | 8.9 µM
6) C[C@]12C/C(=C/O)C(=O)C[C@@H]1CC[C@@H]1[C@@H]2CC[C@@]2(C)[C@H]1CC[C@]2(C)O [OXYMETHOLONE] | > 30 µM
7) CCCN1CC(NS(=O)(=O)N(CC)CC)CC2Cc3c(O)cccc3CC21 (centres undefined) [QUINAGOLIDE] | 11 µM
8) CCC[C@@H]1C[C@@H](C(=O)N[C@@H]([C@H]2O[C@H](SC)[C@H](O)[C@@H](O)[C@H]2O)[C@@H](C)O)N(C)C1 [LINCOMYCIN] | > 10 µM
9) CN(C)CCCN1c2ccccc2CCc2ccccc21 [IMIPRAMINE] | 2.1 µM
10) CC(C(=O)O)c1ccc2oc(-c3ccc(Cl)cc3)nc2c1 (centres undefined) [BENOXAPROFEN] | > 30 µM
11) Cc1nc(Nc2ncc(C(=O)Nc3c(C)cccc3Cl)s2)cc(N2CCN(CCO)CC2)n1 [DASATINIB] | 19 µM
12) CC(=O)[C@H]1CC[C@H]2[C@@H]3C[C@H](C)C4=CC(=O)CC[C@]4(C)[C@H]3[C@@H](O)C[C@]12C [MEDRYSONE] | > 10 µM
13) O=c1c(O)c(-c2ccc(O)c(O)c2)oc2cc(O)cc(O)c12 [QUERCETIN] | > 10 µM
14) C[N+](C)(C)CCOP(=O)([O-])OC[C@H](O)CO | > 30 µM
15) Cn1c(=O)c2c(ncn2CCOC(=O)C(C)(C)Oc2ccc(Cl)cc2)n(C)c1=O [THEOFIBRATE] | > 30 µM
16) CN1CCN=C(c2ccccc2)c2cc(Cl)ccc21 [MEDAZEPAM] | > 30 µM
17) NC(=O)NC(=O)Cc1ccccc1 [PHENACEMIDE] | > 10 µM
18) c1ccc(C2(N3CCCCC3)CCCCC2)cc1 [PHENCYCLIDINE] | > 30 µM
19) CC[C@@H](CO)NC(=O)[C@@H]1C=C2c3cccc4c3c(cn4C)C[C@H]2N(C)C1 [METHYSERGIDE] | 3.5 µM
20) C[N+]1(C)CCC(=C(c2ccccc2)c2ccccc2)CC1 | > 10 µM
21) CO/N=C(\C(=O)N[C@@H]1C(=O)N2C(C(=O)O)=CCS[C@H]12)c1csc(N)n1 [CEFTIZOXIME] | > 30 µM
22) CC/C=C\C/C=C\C/C=C\C/C=C\C/C=C\CCCC(=O)OCC [ICOSAPENT ETHYL] | > 30 µM
23) CC(=O)O[C@]1(C(C)=O)CC[C@H]2[C@@H]3C=C(Cl)C4=CC(=O)[C@@H]5C[C@@H]5[C@]4(C)[C@H]3CC[C@@]21C [CYPROTERONE ACETATE] | > 10 µM
24) CC(C)Cc1ccc([C@H](C)C(=O)O)cc1 [DEXIBUPROFEN] | > 30 µM
25) Oc1cc(O)c(Cl)cn1 | > 30 µM
26) CCOC(=O)C(C)(C)Oc1ccc(Cl)cc1 [CLOFIBRATE] | > 10 µM
27) CC(C)[C@H](N)C(=O)OCCOCn1cnc2c(=O)[nH]c(N)nc21 [VALACYCLOVIR] | > 10 µM
28) Cc1cc(C)nc(NS(=O)(=O)c2ccc(N)cc2)n1 [SULFAMETHAZINE] | > 30 µM
29) O=C(O)Cc1ccccc1Nc1c(Cl)cccc1Cl [DICLOFENAC] | > 10 µM
30) C=CC[N+]1([C@H]2C[C@H]3[C@@H]4CC[C@H]5C[C@H](O)[C@@H](N6CCOCC6)C[C@]5(C)[C@H]4CC[C@]3(C)[C@H]2OC(C)=O)CCCC1 [ROCURONIUM] | > 30 µM
31) CC(CN(C)C)C(C)(O)Cc1ccc(Cl)cc1 (centres undefined) [CLOBUTINOL] | > 10 µM
32) C[C@@H]1C[C@H]2[C@@H]3CCC4=CC(=O)C=C[C@]4(C)[C@@]3(F)[C@@H](O)C[C@]2(C)[C@@]1(O)C(=O)CO [DEXAMETHASONE] | > 30 µM
33) CC(C)(Oc1ccc(CCNC(=O)c2ccc(Cl)cc2)cc1)C(=O)O [BEZAFIBRATE] | > 10 µM
34) Cn1cc(C(=O)[C@@H]2CCc3nc[nH]c3C2)c2ccccc21 [RAMOSETRON] | 11 µM

Just for reference, ChEMBL document CHEMBL5291721 is where these values come from.
